Catalogue of pIC50 values
Test system: 276233-004-R-J1-PDC KRAS spheroids with HUVEC/MSC, viability;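 note: cells exposed to agents for seven days before viability read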
Experiment: Anticancer human tumor 276233-004-R-J1-PDC patient-derived colon adenocarcinoma cell line growth inhibition [KRAS2]
Settings: curve of first compound; second compound 3.16 µM
Description: Multicellular complex tumor spheroid response to RAS pathway inhibitors in combination with a targeted agents in patient-derived cell lines with oncogenic KRAS variants from multiple cancer types A high-throughput screen of multi-cell type tumor spheroids was designed to identify active combinations of targeted small molecules and KRAS pathway inhibitors. […] Compounds. […] If the clinical Cmax for an agent had not been determined, the highest concentration tested was 10 microM. […]
pIC50: −log10 of the molar value.

Cn1ncnc1[C@H]1c2n[nH]c(=O)c3cc(F)cc(c23)N[C@@H]1c1ccc(F)cc1 + C=CC(=O)N1CCN(c2nc(=O)n(-c3c(C)ccnc3C(C)C)c3nc(-c4c(O)cccc4F)c(F)cc23)C(C)C1; < 7.00
CC(=O)Nc1cccc(-n2c(=O)n(C3CC3)c(=O)c3c(Nc4ccc(I)cc4F)n(C)c(=O)c(C)c32)c1 + CNCc1ccccc1-c1csc(C(C)Nc2nc(C)nc3cc(OC)c(OC)cc23)c1; > 10.00
CC(C)NCC(C(=O)N1CCN(c2ncnc3c2C(C)CC3O)CC1)c1ccc(Cl)cc1 (stereo not given) + C=CC(=O)N1CCN(c2nc(OCC3CCCN3C)nc3c2CCN(c2cccc4cccc(C)c24)C3)CC1CC#N; > 7.50
Cn1nccc1Nc1nccc(-c2cc3c(s2)C(C)(C)N(CCN2CCOCC2)C3=O)n1 + CNCc1ccccc1-c1csc(C(C)Nc2nc(C)nc3cc(OC)c(OC)cc23)c1; > 7.50
CC(=O)OC12COC1CC(O)C1(C)C(=O)C(O)C3=C(C)C(OC(=O)C(O)C(NC(=O)OC(C)(C)C)c4ccccc4)CC(O)(C(OC(=O)c4ccccc4)C21)C3(C)C (stereo not given) + CNCc1ccccc1-c1csc(C(C)Nc2nc(C)nc3cc(OC)c(OC)cc23)c1; 7.67
CC(=O)OC12COC1CC(O)C1(C)C(=O)C(O)C3=C(C)C(OC(=O)C(O)C(NC(=O)OC(C)(C)C)c4ccccc4)CC(O)(C(OC(=O)c4ccccc4)C21)C3(C)C (stereo not given) + C=CC(=O)N1CCN(c2nc(=O)n(-c3c(C)ccnc3C(C)C)c3nc(-c4c(O)cccc4F)c(F)cc23)C(C)C1; < 5.50
CC1OCC2(CCN(c3cnc(Sc4ccnc(N)c4Cl)c(N)n3)CC2)C1N (stereo not given) + C=CC(=O)N1CCN(c2nc(OCC3CCCN3C)nc3c2CCN(c2cccc4cccc(C)c24)C3)CC1CC#N; 6.28
COc1cc(Nc2ncc3c(n2)-c2ccc(Cl)cc2C(c2c(F)cccc2OC)=NC3)ccc1C(=O)O + CNCc1ccccc1-c1csc(C(C)Nc2nc(C)nc3cc(OC)c(OC)cc23)c1; > 7.50

# value lookup — system 276233-004-R-J1-PDC KRAS spheroids with HUVEC/MSC, viability, readout pIC50, item CCNC(=O)CC1N=C(c2ccc(Cl)cc2)c2cc(OC)ccc2-n2c(C)nnc21 (stereo not given) + COc1cc2nc(C)nc(NC(C)c3cc(N)cc(C(F)(F)F)c3)c2cc1OC1CCOC1;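 note: cells exposed to agents for seven days before viability read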
5.63

pIC50 of O=C(c1cc(Cc2n[nH]c(=O)c3ccccc23)ccc1F)N1CCN(C(=O)C2CC2)CC1 + C=CC(=O)N1CCN(c2nc(OCC3CCCN3C)nc3c2CCN(c2cccc4cccc(C)c24)C3)CC1CC#N on 276233-004-R-J1-PDC KRAS spheroids with HUVEC/MSC, viability?
> 7.50
